tested on: HepG2; assay: Cytotoxicity against human HepG2 cells assessed as cell growth inhibition after 24 hrs by alamar blue assay; type: functional, cell-based; settings: HepG2, 24 h
Would you kindly list log10 IC50 for each of these compounds?
Reminder: these figures are log10 of reported IC50, in µM before transformation.

For the 3 compounds below, give their log10 IC50 values.
1. O=C1Nc2cc(Br)c(Br)cc2/C1=C1/Nc2ccccc2/C1=N\OCC1CO1 (configuration not stated)
2. O=C1Nc2ccccc2/C1=C1/Nc2cc(Br)ccc2/C1=N\OCC1CO1 (configuration not stated)
3. O=C1Nc2cc(Br)c(Br)cc2/C1=C1/Nc2ccccc2/C1=N\O

[0.28, 0.65, 0.64]

I'm hoping you can list log10 IC50 for every compound here, please.
1. O=C1Nc2ccc(Br)cc2/C1=C1/Nc2ccc(Br)cc2/C1=N\O
2. O=C1Nc2c(Br)cccc2/C1=C1/Nc2ccccc2/C1=N\O
3. COc1ccc2c(c1)/C(=C1/Nc3ccccc3/C1=N\OCC1CO1)C(=O)N2 (configuration not stated)
4. O=C1Nc2ccc(Cl)cc2/C1=C1/Nc2ccccc2/C1=N\O
5. O=C1Nc2ccc(Br)cc2/C1=C1/Nc2ccccc2/C1=N\OCC1CO1 (configuration not stated)

1. 0.85
2. 0.68
3. 0.20
4. 1.11
5. -0.21

----------
experiment: Drug recovery in human HepG2 cell lysate measured up to 30 mins by HPLC analysis; assay type: ADME, cell-based; settings: read-out: Drug recovery
measurement-type: remaining at 0.5 h

remaining at 0.5 h lookup needed for O=C1Nc2ccccc2/C1=C1/Nc2ccccc2/C1=N\OCC1CO1 (stereo unspecified) , thanks.
96 to 103%

----------
Assign pIC50 to each entry below.
tested on: HepG2; assay: Cytotoxicity against human HepG2 cells assessed as cell growth inhibition after 24 hrs by alamar blue assay; format: functional, cell-based; conditions: HepG2, 24 h
Numbers only, as −log10 of the molar value.

- compound: "O=C1Nc2ccc(Br)cc2/C1=C1/Nc2ccccc2/C1=N\\OCC(O)CO (centres undefined)"
  pIC50: 5.01
- compound: "O=C1Nc2ccc(Br)cc2/C1=C1/Nc2ccccc2/C1=N\\O"
  pIC50: 5.16
- compound: "O=C1Nc2c(Br)cccc2/C1=C1/Nc2cc(Br)ccc2/C1=N\\O"
  pIC50: 4.77
- compound: "O=C1Nc2c(Br)cccc2/C1=C1/Nc2ccc(Br)cc2/C1=N\\O"
  pIC50: 5.31
- compound: "O=C1Nc2ccc(I)cc2/C1=C1/Nc2ccccc2/C1=N\\O"
  pIC50: 4.24

Please give pIC50, item by item, for the list that follows.
1. O=C1Nc2ccc(F)cc2/C1=C1/Nc2ccccc2/C1=N\O
2. O=C1Nc2ccccc2/C1=C1/Nc2ccccc2/C1=N\OCCCC1CO1 (centres undefined)
3. COc1ccc2c(c1)NC(=O)/C2=C1\Nc2ccccc2\C1=N/O
4. O=C1Nc2c(Br)cccc2/C1=C1/Nc2ccc(Br)cc2/C1=N\OCC1CO1 (centres undefined)
5. O=C1Nc2ccc(I)cc2/C1=C1/Nc2ccccc2/C1=N\OCC1CO1 (centres undefined)
6. O=C1Nc2ccccc2/C1=C1/Nc2cc(Br)ccc2/C1=N\O

5.00
4.80
4.68
5.00
5.52
4.85

----------
tested on: HepG2; test: Cytotoxicity against human HepG2 cells assessed as cell growth inhibition after 24 hrs by alamar blue assay; type: functional, cell-based; conditions: HepG2, 24 h
Provide the reported IC50 of each item.
Numbers only, in µM.

Consider the reported IC50 for these molecules:
- molecule: "O=C1Nc2ccc(F)cc2/C1=C1/Nc2ccccc2/C1=N\\OCC1CO1 (centres undefined)"
  IC50, µM: 1.7
- molecule: "O=C1Nc2ccc(Br)cc2/C1=C1/Nc2ccc(Br)cc2/C1=N\\OCC1CO1 (centres undefined)"
  IC50, µM: 2.5
- molecule: "O=C1Nc2cc(Br)ccc2/C1=C1/Nc2ccc(Br)cc2/C1=N\\O"
  IC50, µM: 3.7

Take each entry in turn and give its IC50.
1. COc1cccc2c1NC(=O)/C2=C1\Nc2ccccc2\C1=N/O
2. COc1cccc2c1NC(=O)/C2=C1\Nc2ccccc2\C1=N/OCC1CO1 (centres undefined)
3. O=C1Nc2c(Br)cccc2/C1=C1/Nc2ccccc2/C1=N\OCC1CO1 (centres undefined)

5.9
10
37
